The values you see were collected from ChEMBL document CHEMBL1201862.

# Tested on: Hs-578T
# Assay Comment: NCI tumour cell line growth inhibition, 48 h
Active and inactive are the calls of the source. Cut-off read from the data, not from the text of the source: active = GI50 up to about 1.1 µM and inactive = higher. Bridge positions count the residues as written; N and C are the ends. Peptide text beside a SMILES is read from it. * marks the point of attachment. Cbz = O=C(OCc1ccccc1)*
Could you please report measured GI50 for the items listed next?

Look over these answered cases.
[[record]]
compound = "NC(CCCCP(=O)(O)O)C(=O)O (configuration not stated)"
test_result = "> 100 µM (inactive)"

[[record]]
compound = "CNC(=O)C1CCCCNC(=O)CCC(NC(=O)OCc2ccccc2)C(=O)N1 (stereo not drawn) (Cbz-Glu-Lys-NHMe; lactam 1-2; configuration not given here)"
test_result = "> 100 µM (inactive)"

[[record]]
compound = "Nc1ccc(Oc2ccc(C3(c4ccc(Oc5ccc(N)cc5)cc4)C4CC5C6CC7CC5C3C(C7)C6C4)cc2)cc1"
test_result = "62.5 µM (inactive)"

[[record]]
compound = "N=C(N)N/N=C(\\c1ccc(Cl)cc1)C1CC1"
test_result = "25 µM (inactive)"

[[record]]
compound = "COc1cc2cc(C(=O)Nc3cc4n(n3)-c3ccccc3C4)[nH]c2c(OC)c1OC"
test_result = "2.98 µM (inactive)"

[[record]]
compound = "Cc1cc(=O)oc2c(C3=NN(C=O)C(c4ccccc4)C3)c(O)ccc12 (configuration not stated)"
test_result = "31.2 µM (inactive)"

[[record]]
compound = "CC12CCC(Br)C(C)(C)C1CC=C1C(=O)OCC1O2 (configuration not stated)"
test_result = "10.9 µM (inactive)"

[[record]]
compound = "O=C(O)C(CCc1ccccn1)c1ccccc1 (configuration not stated)"
test_result = "> 100 µM (inactive)"

[[record]]
compound = "CC1(c2ccc(Cl)s2)CC(c2ccc(Cl)s2)=C(C#N)C(=C(C#N)C#N)N1 (configuration not stated)"
test_result = "29.5 µM (inactive)"

[[record]]
compound = "COc1ccc2c(c1)CCc1c(-c3noc4c3CCc3cc(OC)ccc3-4)noc1-2"
test_result = "> 100 µM (inactive)"


For every record below, what is its GI50?
1. Cc1c(C(=O)NNc2ccccc2)n2c(S)nnc2c2ccccc12
2. CC(=O)Nc1c2sscc-2n(C)c1=O

Result:
1: > 100 µM (inactive); 2: 2.6 µM (inactive)

----------
# System: SNB-75
# Assay Comment: NCI tumour cell line growth inhibition, 48 h
Activity calls are given as the source filed them. Cut-off read from the data, not from the text of the source: active = GI50 up to about 1.1 µM and inactive = higher. Where a SMILES comes first, the peptide text is derived from it. [ ]: non-standard residue; d: D form. Aoe = N[C@@H](CCCCCC(=O)[C@@H]1CO1)C(=O)O
The categories you may choose from are active, inactive

[[record]]
molecule = "Cc1cccc(C)c1NC(=O)CCCC(=O)C(C#N)c1ccccc1 (configuration not stated)"
system = "SNB-75"
cat = "inactive"


Request: What outcome does the record of this test show for CC(=O)NC1COC(COC(=O)CCCCCCCCCCNC(=O)c2ccc([N+](=O)[O-])c3c(=O)c4ccccc4[nH]c23)C(O)C1OC(C)C(=O)NC(C(=O)NC(CCC(N)=O)C(=O)OCc1ccccc1)C(C)C (configuration not stated) ?
Result: inactive

Request: Could you check what this test reported for O=C1/C(=N/CCc2cc(Br)c(O)c(Br)c2)C=C(O)c2cccnc21 ?
Result: inactive

Request: What is the recorded call for this molecule in the test? CC(=O)N1C(Nc2ccccn2)CCN1c1ccccc1 (configuration not stated)
Result: inactive

Request: Hey, what did the test say about O=C1N[C@@H](Cc2ccccc2)C(=O)N2CCC[C@@H]2C(=O)N[C@@H](CCCCCC(=O)[C@@H]2CO2)C(=O)N[C@H]1Cc1ccccc1 [TRAPOXIN B] (cyclo(FF[dP][Aoe])) ?
Result: active

Request: What is the recorded call for this molecule in the test? COc1ccc2c(c1)[nH]c1c(/C=C/c3ccccc3)nccc12
Result: inactive

Request: What outcome does the record of this test show for O=C1c2cc(I)ccc2N2CCN=C2N1Cc1ccccc1 ?
Result: inactive

----------
# Test system: SK-MEL-5
# Assay Comment: NCI tumour cell line growth inhibition, 48 h
Activity calls are given as the source filed them. No stated cut-off is given here; in the data, active = GI50 up to about 1.1 µM and inactive = higher.
Readout Name: GI50

[[record]]
query_smiles = "N=C(N)NC(=N)Nc1ccccc1.Sc1nc2ccccc2s1"
test_result = "> 100 µM (inactive)"

[[record]]
query_smiles = "Cc1ccc(-c2nc3c(C(=O)NCCN(C)C)cccc3[nH]2)cc1"
test_result = "13.7 µM (inactive)"

[[record]]
query_smiles = "COc1cc2ccc(/C=C\\[N+](=O)[O-])cc2cc1OC"
test_result = "4.76 µM (inactive)"


We next turn to a different compound, shown below.
Request: Respond only with GI50 recorded for Cc1[nH]n(-c2ncc(C(=O)O)c(=O)[nH]2)c(=O)c1CCO
Result: > 100 µM (inactive)

----------
# Test system: SF-268
# Assay Comment: NCI tumour cell line growth inhibition, 48 h
Active and inactive are the calls of the source. Rule as the data show it: active = GI50 up to about 1.1 µM and inactive = higher.
Just give me one of these, please: active, inactive

Here's what some known entries look like.
[[record]]
compound = "[O-][S+](Cc1cc2c(cc1Br)OCO2)c1ccccc1 (stereo unspecified)"
cat = "inactive"

[[record]]
compound = "CC1=CC(=O)c2c(C=O)c(O)c(O)c(C(C)C)c2C1=O"
cat = "inactive"

[[record]]
compound = "NP(=O)(OCC1=CC(=O)c2ccccc2C1=O)N(CCBr)CCBr (stereo unspecified)"
cat = "inactive"


Request: For COc1cc(Cn2c3c(c4cc(O)ccc42)C(=O)c2ccccc2C3=O)cc(OC)c1 , which call appears in the assay record?
Result: inactive

Request: // param item: COC(=O)c1n[nH]c(C)c1/N=N/N(C)CCC#N ; yields the recorded call
Result: inactive

Request: I'd appreciate the recorded outcome for CCCCOC(=O)NC(=O)c1cn(CCCOC(=O)CCCCCCCCC(=O)OCCCn2cc(C(=O)NC(=O)OCCCC)c(=O)n(C)c2=O)c(=O)n(C)c1=O from this test.
Result: inactive

Request: // outcome(item) with item = CN(C)C(=O)c1nnsc1NN=O
Result: inactive

----------
# Test system: HL-60
# Assay Comment: NCI tumour cell line growth inhibition, 48 h
Calls of active or inactive are those of the source. Cut-off read from the data, not from the text of the source: active = GI50 up to about 1.1 µM and inactive = higher.
Your reply should match one of these outcome classes. active, inactive

[[record]]
compound = "Cc1cccc2c1C(=O)OC2(c1cccc2ccccc12)c1cccc2ccccc12"
cat = "inactive"

[[record]]
compound = "N=C(N)NC(=N)Nc1ccccc1.Sc1nc2ccccc2s1"
cat = "inactive"

[[record]]
compound = "Cc1c(C(=O)NNc2ccccc2)n2c(S)nnc2c2ccccc12"
cat = "inactive"

[[record]]
compound = "CC1=CC(=O)c2c(C=O)c(O)c(O)c(C(C)C)c2C1=O"
cat = "inactive"

[[record]]
compound = "CC1(c2ccc(Cl)s2)CC(c2ccc(Cl)s2)=C(C#N)C(=C(C#N)C#N)N1 (centres undefined)"
cat = "inactive"


Now let's try a different one.
Request: How did this test come out for O=C1c2ccccc2-c2c1c1ccccc1c(=O)n2CCO ?
Result: inactive

----------
# Test system: Malme-3M
# Assay Comment: NCI tumour cell line growth inhibition, 48 h
The source made the active and inactive calls. Cut-off read from the data, not from the text of the source: active = GI50 up to about 1.1 µM and inactive = higher.
Select the correct class. Options are active, inactive and nothing else.

Study these solved cases before continuing.
[[record]]
compound = "CC(=O)OC1C(C)OC(OC(=O)C2CCC3C(C2)OC2(CC(OC(=O)/C=C/c4ccccc4)C(C)CO2)C32CO2)C(OC2OC(C)C(O)C(OC(C)=O)C2O)C1O (stereo not given)"
system = "Malme-3M"
cat = "active"

[[record]]
compound = "C/C(=C1/N=C(c2cc([N+](=O)[O-])ccc2Cl)N(C2=CC=C(Cl)CC2)C1=O)c1cc2ccccc2oc1=O"
system = "Malme-3M"
cat = "inactive"

[[record]]
compound = "O=C1NC(N2CCOCC2)=N/C1=C\\c1ccccc1"
system = "Malme-3M"
cat = "inactive"


Request: Write down the call the test reported for this compound. Item: CCOC(=O)CCC(C(=O)OCC)n1nnc2ccc(Nc3c(C)[n+]([O-])c4cc(F)c(OCC)cc4[n+]3[O-])cc21 (stereo not given)
Result: inactive

Request: // param item: Cc1cc(-c2nc3cc(F)c(F)cc3s2)ccc1N ; yields the recorded call
Result: inactive

Request: Could you check what this test reported for Oc1ccc(/N=C/c2ccc(/C=N/c3ccc(O)cc3)cc2)cc1 ?
Result: inactive

Request: Query: recorded result category for c1ccc2c(c1)OCCOCCOc1ccccc1OCCO2 in this test
Result: inactive

Request: In this assay, the call recorded for Oc1c(Br)c(-c2ccccc2)nc2ccccc12 was what?
Result: inactive

Request: Test call for this compound, please: C[n+]1c2ccccc2c(C(=O)Nc2ccc(S(=O)(=O)N=C(N)N)cc2)c2ccccc21
Result: inactive

Request: Could you kindly confirm the outcome this assay logged for Cc1nc2sccn2c1/C=C1/C(=O)Nc2cccc(Cl)c21 ?
Result: inactive

----------
# System: SF-539
# Assay Comment: NCI tumour cell line growth inhibition, 48 h
Active and inactive are the calls of the source. No stated cut-off is given here; in the data, active = GI50 up to about 1.1 µM and inactive = higher.
Readout Name: GI50

[[record]]
compound = "O=P1(Oc2ccc(Cl)cc2Cl)Oc2ccc3ccccc3c2-c2c(ccc3ccccc23)O1"
readout_name = "GI50"
test_result = "21.6 µM (inactive)"

[[record]]
compound = "CN(C)CCNC(=O)c1cccc2c1Oc1cccc([N+](=O)[O-])c1O2"
readout_name = "GI50"
test_result = "18.2 µM (inactive)"

[[record]]
compound = "CCOC(OCC)(OCC)C(Br)CC (stereo not drawn)"
readout_name = "GI50"
test_result = "> 100 µM (inactive)"

[[record]]
compound = "Cc1ccc(C2=Nc3c(N)nc(N)nc3NC(c3ccccc3)C2)cc1 (stereo not drawn)"
readout_name = "GI50"
test_result = "12 µM (inactive)"


Please supply GI50 for each of the following items, keeping them in order.
1. CCOC(=O)CCCOc1cc(-c2ccccc2F)nc2cc3c(cc12)OCO3
2. Cc1ccc(NC(=O)C2C(=O)N(c3ccc(C)c(C)c3)C(=O)C2N=N)cc1C (stereo not drawn)
3. CCc1cc(CCC(=O)Nc2c(C)cccc2C)n[nH]1
4. O=C(O)c1c2c(c(C(=O)O)c3ccccc13)-c1ccccc1-2

Result:
1. > 100 µM (inactive)
2. > 100 µM (inactive)
3. > 100 µM (inactive)
4. 28.7 µM (inactive)
